# target_or_system: MAPK10 (Homo sapiens, UniProt P53779);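 further: compound tested at 10 µM with 2 µM protein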
# Construct: purchased in-house DSF panel (SGC Frankfurt)
# Sequence (P53779 whole entry): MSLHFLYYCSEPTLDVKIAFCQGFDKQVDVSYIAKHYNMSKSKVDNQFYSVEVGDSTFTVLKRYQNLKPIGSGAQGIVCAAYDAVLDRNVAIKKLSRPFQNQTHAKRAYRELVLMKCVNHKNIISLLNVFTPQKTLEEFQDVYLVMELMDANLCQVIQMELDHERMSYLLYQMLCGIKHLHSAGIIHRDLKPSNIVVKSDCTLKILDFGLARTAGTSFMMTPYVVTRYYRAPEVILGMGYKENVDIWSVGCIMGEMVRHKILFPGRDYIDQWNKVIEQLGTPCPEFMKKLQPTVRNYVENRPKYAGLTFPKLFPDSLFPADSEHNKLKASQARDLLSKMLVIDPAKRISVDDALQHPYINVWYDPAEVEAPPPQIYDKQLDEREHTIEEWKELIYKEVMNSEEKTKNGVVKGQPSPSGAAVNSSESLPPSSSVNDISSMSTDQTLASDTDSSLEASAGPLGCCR
# measurement_notes: DSF
# Type: binding
readout_kind: ΔTm MAPK10 (°C)

>  <molecule>
N#CCc1ccc(Nc2nccc(Nc3cc(C4CC4)[nH]n3)n2)cc1 [compound 1, reference compound]

>  <ΔTm MAPK10 [°C]>
7.2

$$$$

A: COC(=O)c1cc(Nc2ccnc(NCCOCCNC(=O)OC(C)(C)C)n2)[nH]n1 [21d]
B: CC(C)(C)OC(=O)Nc1ccc(CNc2nccc(Nc3cc(C(=O)OC(C)(C)C)[nH]n3)n2)cc1 [43d]
C: COC(=O)c1cc(Nc2ccnc(NCc3ccc(NC(=O)OC(C)(C)C)cc3)n2)[nH]n1 [21i]
D: CC(C)OC(=O)c1cc(Nc2ccnc(NCc3ccc(NC(=O)OC(C)(C)C)cc3)n2)n[nH]1 [42d]
List the 4 entries from lowest ΔTm MAPK10 to highest ΔTm MAPK10 value. State the ranking by listing the labels in the requested order.
D, B, C, A

###

# target_or_system: MERTK (Homo sapiens)
# Construct: purchased in-house DSF panel (SGC Frankfurt)
# Sequence (Q12866 570-864): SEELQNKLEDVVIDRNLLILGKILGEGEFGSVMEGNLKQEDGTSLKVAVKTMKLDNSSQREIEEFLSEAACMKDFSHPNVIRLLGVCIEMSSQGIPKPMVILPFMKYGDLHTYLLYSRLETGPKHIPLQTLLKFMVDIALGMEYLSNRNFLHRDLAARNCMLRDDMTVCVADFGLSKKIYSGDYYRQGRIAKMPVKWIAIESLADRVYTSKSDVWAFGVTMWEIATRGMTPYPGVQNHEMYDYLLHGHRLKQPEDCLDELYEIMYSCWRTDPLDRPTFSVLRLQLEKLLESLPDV
# measurement_notes: DSF
# Format: binding
readout_kind: ΔTm MERTK (°C)

A: COC(=O)c1cc(Nc2ccnc(NCCOCCNC(=O)OC(C)(C)C)n2)[nH]n1 [21d]
B: CC(C)OC(=O)c1cc(Nc2ccnc(NCc3ccc(NC(=O)OC(C)(C)C)cc3)n2)n[nH]1 [42d]
Pick one, A or B : lowest reported ΔTm MERTK. Give the label under which the chosen entry appears.
B

P: CC(C)(C)OC(=O)Nc1ccc(CNc2nccc(Nc3cc(C(=O)OC(C)(C)C)[nH]n3)n2)cc1 [43d]
Q: COC(=O)c1cc(Nc2ccnc(NCc3ccc(NC(=O)OC(C)(C)C)cc3)n2)[nH]n1 [21i]
Pick one, P or Q : lowest reported ΔTm MERTK. Give the label under which the chosen entry appears.
P

###

# target_or_system: CHEK2 (Homo sapiens)
# Construct: purchased in-house DSF panel (SGC Frankfurt)
# Sequence (O96017 210-531): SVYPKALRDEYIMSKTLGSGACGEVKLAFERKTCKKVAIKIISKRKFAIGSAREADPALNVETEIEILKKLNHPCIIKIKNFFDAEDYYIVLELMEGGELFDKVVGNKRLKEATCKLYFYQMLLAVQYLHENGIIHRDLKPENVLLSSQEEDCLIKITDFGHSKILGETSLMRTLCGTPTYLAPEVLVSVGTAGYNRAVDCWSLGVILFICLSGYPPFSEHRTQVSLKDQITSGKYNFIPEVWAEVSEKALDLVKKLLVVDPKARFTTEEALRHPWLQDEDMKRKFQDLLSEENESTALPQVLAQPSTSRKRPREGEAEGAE
# measurement_notes: DSF
# Format: binding
readout_kind: ΔTm CHEK2 (°C)

Below, 2 compounds whose answers are already recorded.
>  <compound>
N#CCc1ccc(Nc2nccc(Nc3cc(C4CC4)[nH]n3)n2)cc1 [compound 1, reference compound]

>  <display_unit>
°C

>  <ΔTm CHEK2>
8.6

$$$$
>  <compound>
CC(C)OC(=O)c1cc(Nc2ccnc(NCc3ccc(NC(=O)OC(C)(C)C)cc3)n2)n[nH]1 [42d]

>  <display_unit>
°C

>  <ΔTm CHEK2>
0.6

$$$$

1: COC(=O)c1cc(Nc2ccnc(NCCOCCNC(=O)OC(C)(C)C)n2)[nH]n1 [21d]
2: COC(=O)c1cc(Nc2ccnc(NCc3ccc(NC(=O)OC(C)(C)C)cc3)n2)[nH]n1 [21i]
3: CC(C)(C)OC(=O)Nc1ccc(CNc2nccc(Nc3cc(C(=O)OC(C)(C)C)[nH]n3)n2)cc1 [43d]
List the 3 entries from lowest ΔTm CHEK2 to highest ΔTm CHEK2 value. State the ranking by listing the labels in the requested order.
2, 3, 1

###

# target_or_system: MAPK14 (Homo sapiens, UniProt Q16539)
# Construct: purchased in-house DSF panel (SGC Frankfurt)
# Sequence (Q16539 whole entry): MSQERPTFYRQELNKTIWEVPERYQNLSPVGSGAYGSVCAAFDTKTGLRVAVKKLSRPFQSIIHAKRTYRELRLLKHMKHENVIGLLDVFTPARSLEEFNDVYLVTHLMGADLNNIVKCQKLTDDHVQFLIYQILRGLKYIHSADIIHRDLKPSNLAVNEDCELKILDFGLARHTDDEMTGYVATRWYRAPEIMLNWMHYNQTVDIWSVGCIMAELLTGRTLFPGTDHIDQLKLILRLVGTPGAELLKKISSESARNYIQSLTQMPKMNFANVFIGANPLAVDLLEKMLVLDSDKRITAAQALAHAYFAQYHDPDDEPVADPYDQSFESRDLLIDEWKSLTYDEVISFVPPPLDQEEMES
# measurement_notes: DSF
# Type: binding
readout_kind: ΔTm MAPK14 (°C)

>  <molecule>
CC(C)(C)OC(=O)Nc1ccc(CNc2nccc(Nc3cc(C(=O)OC(C)(C)C)[nH]n3)n2)cc1 [43d]

>  <ΔTm MAPK14, °C>
-0.3

$$$$

I: COC(=O)c1cc(Nc2ccnc(NCc3ccc(NC(=O)OC(C)(C)C)cc3)n2)[nH]n1 [21i]
II: COC(=O)c1cc(Nc2ccnc(NCCOCCNC(=O)OC(C)(C)C)n2)[nH]n1 [21d]
Pick one, I or II : lowest reported ΔTm MAPK14. Give the label under which the chosen entry appears.
I
